tested on: MCL-1ΔNΔC; assay: High-throughput competitive FP binding screen, FITC-MCL-1 SAHB/MCL-1ΔNΔC interaction; conditions: selectivity for MCL-1ΔNΔC over BCL-XLΔC targeting (BCL-XL % Bound minus MCL-1 % Bound)
Class boundaries, taken from values of Spec Values, are as follows: range A (below 60), range B (60 to below 70), range C (70 or more)

Prompt: Band for `N=C1NC(=O)/C(=C2/C(=O)Nc3ccc(Br)cc32)S1` ?
Completion: range A

Prompt: Band for `Cc1cc(NC(=O)/C=C/c2ccco2)n(-c2nc3ccccc3n2Cc2cccc(Oc3ccccc3)c2)n1` ?
Completion: range A

Prompt: Band for `O=C1C(Sc2nc[nH]n2)=C/C(=N/S(=O)(=O)c2cccs2)c2ccccc21` ?
Completion: range C

Prompt: Band for O=C(OCC1O[C@H](OC(=O)c2cc(O)c(O)c(OC(=O)c3cc(O)c(O)c(O)c3)c2)[C@H](OC(=O)c2cc(O)c(O)c(OC(=O)c3cc(O)c(O)c(O)c3)c2)[C@@H](OC(=O)c2cc(O)c(O)c(OC(=O)c3cc(O)c(O)c(O)c3)c2)[C@@H]1OC(=O)c1cc(O)c(O)c(OC(=O)c2cc(O)c(O)c(O)c2)c1)c1cc(O)c(O)c(OC(=O)c2cc(O)c(O)c(O)c2)c1 (some centres unmarked) [drawing 25] ?
Completion: range C

Prompt: Band for CCOC(=O)c1c(N2C(=O)C3C4C=CC(O4)C3C2=O)sc2c1CCCC2 (centres unmarked) ?
Completion: range A

Prompt: Band for `Cc1ccccc1OCC1=NN2C(=N)/C(=C\c3cccn3-c3cccc(Cl)c3)C(=O)N=C2S1` ?
Completion: range B

Prompt: Band for O=C1C(Sc2nc[nH]n2)=CC(NS(=O)(=O)c2ccc(F)cc2)c2ccccc21 (centres unmarked) ?
Completion: range C

Prompt: Band for `NC(=O)c1c(Nc2nc3c(F)cccc3s2)sc2c1CCCC2` ?
Completion: range C

Prompt: Band for `Cc1ccc(C)n1Cc1ccc(C(=O)O)cc1` ?
Completion: range A

Prompt: Band for O=C(O)C1CCCN(c2nn3cc(-c4ccc(F)cc4)nc3s2)C1 (centres unmarked) ?
Completion: range A

Prompt: Band for `Cc1ccc(CCNC(=O)c2ccc3nc(-c4ccco4)c(-c4ccco4)nc3c2)cc1` ?
Completion: range B

Prompt: Band for `O=C(NN1C(=O)S/C(=C/C=C/c2ccco2)C1=O)c1ccccc1O` ?
Completion: range C

Prompt: Band for `CN(C)/C=C1\SC(=S)N(c2ccc(Br)cc2)C1=O` ?
Completion: range C

Prompt: Band for `Cc1ncc(CO)c2c1Oc1nc(-c3ccccc3)[nH]c(=S)c1C2` ?
Completion: range B

Prompt: Band for `O=C1CSCC(=O)N1c1cc(C(F)(F)F)cc(C(F)(F)F)c1` ?
Completion: range A

Prompt: Band for `O=c1oc2c(-c3cccc(Cl)c3)cc(O)cc2s1` ?
Completion: range B

Prompt: Band for COc1ccc(C(Nc2cc(C)ccn2)c2ccc3cccnc3c2O)cc1O (centres unmarked) ?
Completion: range B

Prompt: Band for `O=C(ON1C(=O)CCC1=O)c1ccc(Cl)cc1Cl` ?
Completion: range B

Prompt: Band for `CC(C)Cn1c2ccc(Cl)cc2c2nc3ccccc3nc21` ?
Completion: range A

Prompt: Band for `O=C1C(Sc2nc[nH]n2)=C/C(=N/S(=O)(=O)c2ccc(F)cc2)c2ccccc21` ?
Completion: range C

Prompt: Band for CCOc1ccc(S(=O)(=O)NC2C=C(Sc3nc[nH]n3)C(=O)c3ccccc32)cc1 (centres unmarked) ?
Completion: range C

Prompt: Band for `Cc1cc(C)c2nc(N3CCCN(C(=O)c4ccco4)CC3)c(C#N)cc2c1` ?
Completion: range C

Prompt: Band for `C/C(=N\OCc1ccc(C(=O)N2CCCCC2)o1)c1cccc(C(F)(F)F)c1` ?
Completion: range A

----------
target: BCL-XLΔC (Homo sapiens); assay: High-throughput competitive FP binding screen, FITC-BAD BH3/BCL-XLΔC interaction
Give measured BCL-XL % Bound for each item. Keep answers brief.
Give the value in % but do not write % after it.

Prompt: Data request, read-out BCL-XL % Bound, for O=C1NC(=O)N(CCC2=CCCCC2)C(=O)/C1=C/c1cnc(-c2ccccc2)nc1 [drawing 249]
Completion: 106.9

Prompt: Data request, read-out BCL-XL % Bound, for CC1=NOC(=O)/C1=C/c1ccc(-c2ccc(Cl)cc2)o1 [drawing 255]
Completion: 101.5

Prompt: Data request, read-out BCL-XL % Bound, for O=C(O)C(Cc1ccccc1)N1C(=O)/C(=C/C=C/c2ccco2)SC1=S (stereo not shown)
Completion: 87.83

Prompt: Data request, read-out BCL-XL % Bound, for Cc1cc2c(C(C)C)c(O)c(O)c(C=O)c2c(O)c1-c1c(C)cc2c(C(C)C)c(O)c(O)c(C=O)c2c1O [drawing 158]
Completion: 101

----------
biological target: MCL-1ΔNΔC (Homo sapiens); assay: High-throughput competitive FP binding screen, FITC-MCL-1 SAHB/MCL-1ΔNΔC interaction; design: the C-terminal alpha-helix was deleted from each of these constructs; GST (N, cleaved yes); made in house; conditions: FITC-MCL-1 SAHB/MCL-1ΔNΔC interaction pair, competitive FP screen
Sequence (Q07820 172-320 limits assumed, stated change not applied): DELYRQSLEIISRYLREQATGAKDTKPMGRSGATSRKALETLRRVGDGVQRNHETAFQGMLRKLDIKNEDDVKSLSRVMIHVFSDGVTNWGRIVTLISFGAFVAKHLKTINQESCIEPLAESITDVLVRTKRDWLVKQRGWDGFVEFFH
Class boundaries, taken from values of MCL-1% Bound, are as follows: low end: < 20%; middle: ≥ 20% and < 40%; high end: ≥ 40%

Prompt: Band for `O=C(NC(=S)NCc1ccccc1)C1CCCC1` ?
Completion: high end

Prompt: Band for `CCCCCSc1nnc(N/C=N/O)s1` ?
Completion: high end

Prompt: Band for `Cn1cc2c(n1)-c1cc(Cl)ccc1SC2` ?
Completion: middle

Prompt: Band for CC1CCC(C(C)C)C(OC(=O)COC(=O)c2ccc(O)cc2)C1 (stereo not shown) ?
Completion: high end

Prompt: Band for `C=CCN1C(=O)/C(=C2/C(=O)Nc3ccccc32)c2ccccc21` ?
Completion: middle

Prompt: Band for `c1cc(CNc2ccc(N3CCCC3)cc2)ccn1` ?
Completion: middle

Prompt: Band for `Cc1cc2nc(N3CCC(C)CC3)c3ccccc3n2n1` ?
Completion: low end

Prompt: Band for `NC(=O)c1c(Nc2nc3c(F)cccc3s2)sc2c1CCCC2` ?
Completion: low end

Prompt: Band for `O=C1C=CC(=O)C(CCCCCCC2=CC(=O)C=CC2=O)=C1` ?
Completion: high end

Prompt: Band for `Cc1ccc2[nH]c3nc(=S)[nH]nc3c2c1` ?
Completion: middle

Prompt: Band for `CCOC(=O)/C(C#N)=C\c1ccc(N2CCOCC2)cc1` ?
Completion: low end

Prompt: Band for `CCCOC(=O)c1cc(-c2ccc(/C=C3\C(=O)N(CCCO)C(=O)C(C#N)=C3C)o2)ccc1Cl` ?
Completion: low end

----------
biological target: BCL-XLΔC (Homo sapiens, UniProt Q07817); assay: High-throughput competitive FP binding screen, FITC-BAD BH3/BCL-XLΔC interaction; conditions: FITC-BAD BH3/BCL-XLΔC interaction pair, competitive FP screen
Sequence (Q07817 1-212 limits assumed, stated change not applied): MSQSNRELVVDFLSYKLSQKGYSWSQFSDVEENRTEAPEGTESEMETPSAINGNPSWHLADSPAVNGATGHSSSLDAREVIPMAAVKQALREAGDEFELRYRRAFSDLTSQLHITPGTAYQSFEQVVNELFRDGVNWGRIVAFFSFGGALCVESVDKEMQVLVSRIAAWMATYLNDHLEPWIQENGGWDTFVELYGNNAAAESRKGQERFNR
Result Type: BCL-XL % Bound

Prompt: Data request, read-out BCL-XL % Bound, for `CCCCn1c(=O)[nH]c(=O)c2c1nc(-c1cccs1)c(=O)n2C`
Completion: 68.85%

Prompt: Data request, read-out BCL-XL % Bound, for `CC1(C)CC(=O)C(=Cc2cn(-c3ccccc3)nc2-c2cccs2)C(=O)C1`
Completion: 90.62%

Prompt: Data request, read-out BCL-XL % Bound, for `CCOc1cc(/C=C(/C#N)c2cccc(Br)c2)ccc1OCc1ccc(C(=O)O)o1`
Completion: 85.88%

Prompt: Data request, read-out BCL-XL % Bound, for CCOC(=O)C(C)Oc1cccc2c(=O)n(CC(=O)Nc3ccc4c(c3)CCCO4)ccc12 (stereo not shown)
Completion: 102%

----------
test system: MCL-1ΔNΔC; experiment: High-throughput competitive FP binding screen, FITC-MCL-1 SAHB/MCL-1ΔNΔC interaction; details: selectivity for MCL-1ΔNΔC over BCL-XLΔC targeting (BCL-XL % Bound minus MCL-1 % Bound)
Class boundaries, taken from values of Spec Values, are as follows: class A = under 50, class B = from 50 up to 60, class C = 60 and over

Prompt: Band for CCN1C(=O)C2Cc3cc(OC)c(OC)cc3CN2C1=O (stereo not shown) ?
Completion: class B

Prompt: Band for `CCOC(=O)c1ccc(-c2ccc(/C=C3\S/C(=N\N=C4/C(=O)Nc5ccccc54)NC3=O)o2)cc1` ?
Completion: class B

Prompt: Band for `O=C1NC(=O)/C(=C\c2cccc(C(F)(F)F)c2)S1` ?
Completion: class B

Prompt: Band for `COc1ccc(C(=O)c2sc3cc(-c4ccco4)cc(C(F)(F)F)c3c2N)cc1OC` ?
Completion: class C

Prompt: Band for `Cc1ccc(NCc2n[nH]c(=S)n2-c2ccccc2)cc1` ?
Completion: class B

Prompt: Band for `Cn1cc2c(n1)-c1cc(Cl)ccc1SC2` ?
Completion: class C

Prompt: Band for `CCN(CC)c1ccc2cc(C(N)=O)/c(=N\NC(=O)c3ccccc3)oc2c1` ?
Completion: class C

Prompt: Band for `COC(=O)c1c(NC(=O)C2CC2)sc(C)c1C` ?
Completion: class A

Prompt: Band for `CC1=NN(c2ccccc2)C(=O)/C1=C/c1ccc(OC(=O)c2ccco2)c(Cl)c1` ?
Completion: class A

Prompt: Band for O=C(CC1C(=O)c2ccccc2S1(=O)=O)NC1=NN(c2ccccc2)C(=O)C1 (stereo not shown) ?
Completion: class B

Prompt: Band for `COc1ccc(C(=O)COC(=O)c2c3c(nc4ccccc24)CCN(C)C3)cc1` ?
Completion: class C

Prompt: Band for COc1ccc(N(C)C(=S)Nc2ccc3nc(-c4ccco4)c(-c4ccco4)nc3c2)cc1 [drawing 205] ?
Completion: class C

Prompt: Band for Cc1conc1NC(c1cccs1)c1ccc2cccnc2c1O (stereo not shown) ?
Completion: class A

Prompt: Band for `Cc1cc2nc(N3CCC(C)CC3)c3ccccc3n2n1` ?
Completion: class C

Prompt: Band for `CCCCn1nnnc1COC(=O)/C(C#N)=C/c1ccc(N(C)C)cc1` ?
Completion: class C

Prompt: Band for `c1ccc2c(c1)nc(Nc1ccc(N3CCCCC3)cc1)c1nncn12` ?
Completion: class B
